system: HCC 2998; experiment: NCI tumour cell line growth inhibition, 48 h
The source made the active and inactive calls. Cut-off read from the data, not from the text of the source: active = GI50 up to about 1.1 µM and inactive = higher.
Output constraint: value belongs to true (active), false (inactive)

- compound: "CC(C)=CCC/C(C)=C/Cc1c(O)ccc2c1[nH]c1cc(O)c(C)cc12"
  measured target: "HCC 2998"
  group label: "false"
- compound: "C=C(C)C(=O)O[C@@H]1C/C(C)=C\\[C@H](OC(C)=O)C[C@](C)(O)/C=C2/OC(=O)C(COC(C)=O)=C21"
  measured target: "HCC 2998"
  group label: "true"
- compound: "CC(C)=CCC[C@@H](C)C1=C(O)C(=O)C(C)=C(Nc2ccccc2F)C1=O"
  measured target: "HCC 2998"
  group label: "false"
- compound: "CC(=O)NC1COC(COC(=O)CCCCCCCCCCNC(=O)c2ccc([N+](=O)[O-])c3c(=O)c4ccccc4[nH]c23)C(O)C1OC(C)C(=O)NC(C(=O)NC(CCC(N)=O)C(=O)OCc1ccccc1)C(C)C (centres undefined)"
  measured target: "HCC 2998"
  group label: "false"
- compound: "CCCCOC(=O)NC(=O)c1cn(CCCOC(=O)CCCCCCCCC(=O)OCCCn2cc(C(=O)NC(=O)OCCCC)c(=O)n(C)c2=O)c(=O)n(C)c1=O"
  measured target: "HCC 2998"
  group label: "false"

Test call for this compound, please: "Cc1c(-c2ccccc2)[nH]c2ccc(Cl)cc2c1=O"
false

How did this test come out for "CC(=O)CCC[C@H](C)[C@@H](O)[C@@H]1O[C@H]([C@@]2(C)CCC(=O)O2)C[C@H]1C(=O)O" ?
false

# lookup: test call for "C/C(=N\NC(=O)c1ccccc1O)c1cccc(/C(C)=N/NC(=O)c2ccccc2O)n1"
true

Write down the call the test reported for this compound. Item: CC1(c2ccc(Cl)s2)CC(c2ccc(Cl)s2)=C(C#N)C(=C(C#N)C#N)N1 (centres undefined)
false

----------
Assignment: determine reported GI50 for the given compounds.
test system: CAKI-1; assay: NCI tumour cell line growth inhibition, 48 h
The source made the active and inactive calls. Cut-off read from the data, not from the text of the source: active = GI50 up to about 1.1 µM and inactive = higher.

Take a look at these entries with their results.
- compound: "CC12CCC(Br)C(C)(C)C1CC=C1C(=O)OCC1O2 (stereo not drawn)"
  measured target: "CAKI-1"
  GI50: "11.6 µM (inactive)"
- compound: "Cn1sc2ccccc2c1=S"
  measured target: "CAKI-1"
  GI50: "11.7 µM (inactive)"

Next compound, GI50 to be filled in.
Please state recorded GI50 (tested on CAKI-1) of "OCCNC1=Nc2ccc(Cl)cc2C(=S)N2CSC[C@@H]12"
> 100 µM (inactive)

----------
system: CCRF-CEM; experiment: NCI tumour cell line growth inhibition, 48 h
The source made the active and inactive calls. Cut-off read from the data, not from the text of the source: active = GI50 up to about 1.1 µM and inactive = higher.
Kindly state GI50 for each of the entries shown.

Below: 2 compounds and their reported GI50.
- compound: "Cc1cc(O)nc(NN2C(Cl)C(=O)C2c2cccc(O)c2)n1 (stereo not drawn)"
  measured target: "CCRF-CEM"
  GI50: "4.63 µM (inactive)"
- compound: "O=C(CCN1CC2CCC(CC2)C1)c1cccs1"
  measured target: "CCRF-CEM"
  GI50: "1.94 µM (inactive)"

Alright, here's another compound for you.
I would be grateful if you could share the reported GI50 for "Cc1cc(S(=O)(=O)Nc2nc3ccsc3c(=O)n2N)c(S)cc1Cl" .
71.9 µM (inactive)

----------
system: SK-MEL-5; assay: NCI tumour cell line growth inhibition, 48 h
The source made the active and inactive calls. Cut-off read from the data, not from the text of the source: active = GI50 up to about 1.1 µM and inactive = higher.
Valid outcomes are listed here; reply with one: active, inactive

Some solved entries appear below for comparison.
- compound: "COC(=O)c1n[nH]c(C)c1/N=N/N(C)CCC#N"
  measured target: "SK-MEL-5"
  group label: "inactive"
- compound: "C=CCc1cccc2cc(C(=O)Nc3ccccn3)c(=N)oc12"
  measured target: "SK-MEL-5"
  group label: "inactive"
- compound: "CC(=O)N1C(Nc2ccccn2)CCN1c1ccccc1 (stereo not given)"
  measured target: "SK-MEL-5"
  group label: "inactive"

Could you kindly confirm the outcome this assay logged for CC(=O)OC1C(C)OC(OC(=O)C2CCC3C(C2)OC2(CC(OC(=O)/C=C/c4ccccc4)C(C)CO2)C32CO2)C(OC2OC(C)C(O)C(OC(C)=O)C2O)C1O (stereo not given) ?
active

Recorded call for CC1=C2C(O)C(C(C)CO)C(O)CC2(C)C(O)CC1 (stereo not given) ?
inactive

So what was the verdict on CC(C)[C@]12O[C@H]1[C@@H]1O[C@]13[C@]1(O[C@H]1C[C@H]1C4=C(CC[C@@]13C)C(=O)OC4)[C@@H]2O [TRIPTOLIDE] in this test?
active

Could you kindly confirm the outcome this assay logged for COC(=O)CN(CC(=O)NCCCBr)C1CCCCC1N(CC(=O)OC)CC(=O)OC (stereo not given) ?
inactive

Any idea what this test logged for O=C1OC(CC(=O)c2ccc(Cl)c(Cl)c2)C(Cl)=C1Cl (stereo not given) ?
inactive

Test call, this compound: "c1ccc(COc2ccc(CC3SCCCS3)cc2)cc1"
inactive

----------
tested on: OVCAR-4; test: NCI tumour cell line growth inhibition, 48 h
Activity calls are given as the source filed them. Cut-off read from the data, not from the text of the source: active = GI50 up to about 1.1 µM and inactive = higher. Where a SMILES comes first, the peptide text is derived from it. [ ]: non-standard residue; d: D form. Aoe = N[C@@H](CCCCCC(=O)[C@@H]1CO1)C(=O)O
Hi there, use one of these labels in your reply, thanks! TRUE = active, FALSE = inactive

- compound: "N=C(N)NCCCC(NCc1c2ccccc2[n+]([O-])c2ccccc12)C(=O)O (stereo not given)"
  measured target: "OVCAR-4"
  group label: "FALSE"
- compound: "O=C1N[C@@H](Cc2ccccc2)C(=O)N2CCC[C@@H]2C(=O)N[C@@H](CCCCCC(=O)[C@@H]2CO2)C(=O)N[C@H]1Cc1ccccc1 [TRAPOXIN B] (cyclo(FF[dP][Aoe]))"
  measured target: "OVCAR-4"
  group label: "TRUE"
- compound: "O=C1OC(c2ccccc2)=NC1c1ccccc1 (stereo not given)"
  measured target: "OVCAR-4"
  group label: "FALSE"

Hi, sorry to bother you, what did the test record for "O=C(N/C(=C\c1ccc(/C=C(\NC(=O)c2ccccc2)c2nc3cc(Cl)ccc3[nH]2)cc1)c1nc2cc(Cl)ccc2[nH]1)c1ccccc1" ?
FALSE

Dear all, I need the recorded test outcome for "Cn1sc2ccccc2c1=S" , thank you.
FALSE

----------
test system: NCI-H522; assay: NCI tumour cell line growth inhibition, 48 h
Calls of active or inactive are those of the source. Rule as the data show it: active = GI50 up to about 1.1 µM and inactive = higher.
Tick one outcome: active, inactive

- molecule: "COC(=O)c1n[nH]c(C)c1/N=N/N(C)CCC#N"
  measured target: "NCI-H522"
  group label: "inactive"
- molecule: "O=[N+]([O-])C(Cl)=C/C(=C(\\Cl)SCc1ccccc1)[N+](=O)[O-]"
  measured target: "NCI-H522"
  group label: "inactive"
- molecule: "Cc1nc(=O)[nH]c2c1C(=O)N(C(C)C)C(NC(C)C)S2 (configuration not stated)"
  measured target: "NCI-H522"
  group label: "inactive"
- molecule: "COc1cc2c(c(OC)c1OC)-c1ccc(SC)c(=O)cc1C(CC(=O)Oc1ccc(F)cc1)C2 (configuration not stated)"
  measured target: "NCI-H522"
  group label: "active"
- molecule: "O=C1Cc2cc3ccccc3nc2-c2ccccc2N1"
  measured target: "NCI-H522"
  group label: "inactive"

Now look at this one.
Can you look up the reported call for "Cc1ccc(-n2cc([Si](C)(C)C)nn2)s1" for me?
inactive

----------
Give measured GI50 for each item. Keep answers brief.
tested on: PC-3; test: NCI tumour cell line growth inhibition, 48 h
Calls of active or inactive are those of the source. Rule as the data show it: active = GI50 up to about 1.1 µM and inactive = higher.

Would you be so kind as to report GI50 for each listed record?
1. COc1c(C)c(C/C=C(\C)CCCCO[Si](c2ccccc2)(c2ccccc2)C(C)(C)C)c(OC)c(OC)c1OC
2. O=C(CSc1nc(O)nc2[nH]cnc12)Nc1ccccc1
3. Cc1c(O)c(OC2OC(CO)C(O)C(O)C2O)cc2c1CC[C@@H]1C2(C)C(=O)C[C@]2(C)[C@@H]([C@@](C)(O)C3CCC(C)(C)O3)[C@H](O)C[C@@]12C (stereo partly specified)
4. CC(O)(C#N)CC(O)(C(F)(F)Cl)C(F)(F)Cl (stereo unspecified)
5. CCOC(=O)Nc1cc2c(c(N)n1)N=C(c1ccc(Cl)cc1Cl)CN2

["> 85.7 µM (inactive)", "36.6 µM (inactive)", "> 100 µM (inactive)", "> 10 µM (inactive)", "< 0.0129 µM (active)"]

Look up GI50 for the entries below, preserving their order.
1. Oc1ccc(/N=C/c2ccc(/C=N/c3ccc(O)cc3)cc2)cc1
2. O=C1OCC/C1=C/c1ccc(/N=N/c2c(O)ccc3ccccc23)cc1
3. Cc1ccc([N+](=O)[O-])cc1S(=O)(=O)Nc1ccc(C2=NOC(c3ccco3)C2)cc1 (stereo unspecified)

["16.3 µM (inactive)", "19.9 µM (inactive)", "15.7 µM (inactive)"]

For each listed entry, give its GI50.
1. COc1ccc(OC)c2c(/C=C/c3ccc(N(C)C)cc3)ccnc12
2. CC(=O)OC1COC(Nc2nc(N)n(C)c(=O)c2N=O)C(OC(C)=O)C1OC(C)=O (stereo unspecified)

["> 10 µM (inactive)", "> 10 µM (inactive)"]

For each entry beneath this line, provide reported GI50.
1. O=C1CC(c2cccc(Br)c2)n2cccc21 (stereo unspecified)
2. Oc1c(Br)c(-c2ccccc2)nc2ccccc12

1. 39.5 µM (inactive)
2. 9.38 µM (inactive)

For each of the compounds below, note its GI50.
1. Cc1cc(-c2ccc(C(=O)O)[nH]2)on1
2. O=C1Nc2ccc(S(=O)(=O)NCCO)cc2/C1=C1/Nc2ccccc2C1=O
3. Cc1cc(NC(=O)C(=O)Cc2nc3ccccc3s2)ccc1Cl
4. O=C(O)C(CCc1ccccn1)c1ccccc1 (stereo unspecified)
5. CCOC(=O)C1(C(=O)OCC)COS(=O)OC1
6. COC(=O)CN(CC(=O)NCCCBr)C1CCCCC1N(CC(=O)OC)CC(=O)OC (stereo unspecified)
7. CN(C)CC(CN(C)C)c1ccccn1

["68.5 µM (inactive)", "12.2 µM (inactive)", "> 100 µM (inactive)", "> 100 µM (inactive)", "> 100 µM (inactive)", "> 100 µM (inactive)", "> 100 µM (inactive)"]

Count: 2. Required value per item: GI50.
1. O=C(Nc1c(Cl)cc([N+](=O)[O-])cc1Cl)C(=O)C1C(=O)NC(=S)NC1=O
2. CCC(/C=C/c1ccccc1)=N\NC(=S)N/N=C(/C=C/c1ccccc1)CC

["> 100 µM (inactive)", "72.9 µM (inactive)"]
